# Species: Bos taurus
# Assay summary: Increase in melting point temperature after 0h of incubation [1:5 ratio] as measurement of DNA binding affinity using calf thymus DNA
# Type: functional
Measured ΔTm, listed per entry for reference.
The reply should contain only the number, in °C.

COc1cc2c(cc1O)N=C[C@@H]1CCCN1C2=O; 0.3
C=C1C[C@H]2C=Nc3cc(OCCCOc4cc5c(cc4OC)C(=O)N4CC(=C)C[C@H]4C=N5)c(OC)cc3C(=O)N2C1; 25.7
COc1cc2c(cc1OCCCOc1cc3c(cc1OC)C(=O)N1CC(=C(F)F)C[C@H]1C=N3)N=C[C@@H]1CC(=C(F)F)CN1C2=O; 20.8
COc1cc2c(cc1OCCCOc1cc3c(cc1OC)C(=O)N1CCC[C@H]1C=N3)N=C[C@@H]1CCCN1C2=O; 10.2
COc1cc2c(cc1OCCCCCOc1cc3c(cc1OC)C(=O)N1CC(=C(F)F)C[C@H]1C=N3)N=C[C@@H]1CC(=C(F)F)CN1C2=O; 16.2

QUERY: Could you share which ΔTm value was measured for COc1cc2c(cc1O)N=C[C@@H]1CC(=C(F)F)CN1C2=O ?
RESULT: 1

QUERY: Give the measured ΔTm of COc1cc2c(cc1OCCCCOc1cc3c(cc1OC)C(=O)N1CC(=C(F)F)C[C@H]1C=N3)N=C[C@@H]1CC(=C(F)F)CN1C2=O .
RESULT: 2.1

The measurements presented in this section are drawn from ChEMBL document CHEMBL1137056.
